Experiment summary: Cytotoxicity, crystal violet (CV) assay, MH-22A
Assay type: cell-based, mouse
Condition description: mouse, MH-22A cells (hepatoma); summarises CV and MTT values; read-out: cytotoxicity towards MH-22A cells
Metric: IC50 at 72 h

1) CCCCCCCCCCCCOC(=O)C1=C(C[n+]2cccc(C(C)=O)c2)NC(C[n+]2cccc(C(C)=O)c2)=C(C(=O)OCCCCCCCCCCCC)C1c1ccccc1.[Br-].[Br-]; 50 to 100 µg/mL

[in] Item "O=C(OCCCCCCCCCCCC(F)(F)F)C1=C(C[n+]2ccccc2)NC(C[n+]2ccccc2)=C(C(=O)OCCCCCCCCCCCC(F)(F)F)C1c1ccccc1.[O-][Cl+3]([O-])([O-])[O-].[O-][Cl+3]([O-])([O-])[O-]" has what recorded IC50 at 72 h?
[out] 10 to 19 µg/mL

[in] Item "CCCCCCCCCCCCOC(=O)C1=C(C[n+]2ccc(C(F)(F)F)cc2)NC(C[n+]2ccc(C(F)(F)F)cc2)=C(C(=O)OCCCCCCCCCCCC)C1c1ccccc1.[Br-].[Br-]" has what recorded IC50 at 72 h?
[out] 19 to 49 µg/mL

[in] Item "CCCCCCCCCCCCOC(=O)C1=C(C[n+]2ccc(C)cc2)NC(C[n+]2ccc(C)cc2)=C(C(=O)OCCCCCCCCCCCC)C1c1ccccc1.[Br-].[Br-]" has what recorded IC50 at 72 h?
[out] 29 to 40 µg/mL

###

Property: log10(IC50); scope: individual compounds
Tested on: HT-1080 (human lung fibrosarcoma)
Experiment summary: Cytotoxicity, crystal violet (CV) assay, HT-1080
Condition description: Homo sapiens, HT-1080, 72 h, read-out: HT-1080 IC50 (CV)
Hi team, quick reminder: these entries are log10 of IC50 (µg/mL).

Past entries and their recorded results:
1. CCCCCCCCCCCCOC(=O)C1=C(C[n+]2ccccc2)NC(C[n+]2ccccc2)=C(C(=O)OCCCCCCCCCCCC)C1c1ccc(C2C(C(=O)OCCCCCCCCCCCC)=C(C[n+]3ccccc3)NC(C[n+]3ccccc3)=C2C(=O)OCCCCCCCCCCCC)cc1.[Br-].[Br-].[Br-].[Br-]; 1.08
2. CCCCCCCCCCCCCCCCOC(=O)/C=C(\N)C[N+](C)(C)CCCCCC; 0.48
3. CCCCCCCCCCCCOC(=O)C1=C(C[n+]2ccc(C(F)(F)F)cc2)NC(C[n+]2ccc(C(F)(F)F)cc2)=C(C(=O)OCCCCCCCCCCCC)C1c1ccccc1.[Br-].[Br-]; 0.30
4. CCCCCCCCCCCC[N+](C)(C)CC1=C(C(=O)OC)C(c2ccccc2)CC(=O)N1 (stereo not shown); 0.30
5. CCCCCCCCCCCC[N+](C)(C)CC1=C(C(=O)OCCCCC(F)(F)C(F)(F)C(F)(F)C(F)(F)C(F)(F)C(F)(F)C(F)(F)C(F)(F)F)C(c2ccccc2)CC(=O)N1 (stereo not shown); 0.48

[in] Item "CCCCCCCCCCCCOC(=O)/C=C(\N)C[n+]1ccccc1" has what recorded log10(IC50)?
[out] 0.48

[in] Item "CCCCCCCCCCCCOC(=O)c1c(C[n+]2ccccc2)nc(C[n+]2ccccc2)c(C(=O)OCCCCCCCCCCCC)c1-c1ccccc1.[Br-].[Br-]" has what recorded log10(IC50)?
[out] 0.51

[in] Item "CCCCCCCCCCCCOC(=O)C1=C(C[n+]2ccc(C)cc2)NC(C[n+]2ccc(C)cc2)=C(C(=O)OCCCCCCCCCCCC)C1c1ccc(O)cc1.[Br-].[Br-]" has what recorded log10(IC50)?
[out] 1.51

[in] Item "CCCCCCCCCCCCCCCCOC(=O)/C=C(\N)C[N+](C)(C)CCCCCCCCCCCC" has what recorded log10(IC50)?
[out] 0.48
